molecular target: hEP2 (Homo sapiens, UniProt P43116); construct: expressed in transfected cells; host or cells: HEK293; test: hEP2 cAMP assay; assay type: cell-based; conditions: HEK293 cells overexpressing hEP2; PGE2 400 pM as agonist; median of multiple experiments; read-out: IC50 (nM) EP2 cAMP
Sequence (P43116 whole entry): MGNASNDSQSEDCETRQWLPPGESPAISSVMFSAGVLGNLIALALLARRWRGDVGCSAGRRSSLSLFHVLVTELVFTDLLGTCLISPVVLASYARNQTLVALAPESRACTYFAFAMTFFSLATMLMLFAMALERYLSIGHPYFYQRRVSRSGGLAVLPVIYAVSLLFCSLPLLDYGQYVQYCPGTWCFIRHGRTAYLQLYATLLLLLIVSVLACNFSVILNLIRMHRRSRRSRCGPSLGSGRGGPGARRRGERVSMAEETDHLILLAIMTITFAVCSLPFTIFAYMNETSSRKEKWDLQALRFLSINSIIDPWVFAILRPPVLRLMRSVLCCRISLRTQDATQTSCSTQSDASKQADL
reported.metric: IC50

Fill blank: measured IC50 of the compound O=C(N[C@]12C[C@](C(=O)O)(C1)C2)c1csc2ccn(Cc3ccc(-c4ccccc4)cc3)c12 [Example 87] is ____. > 10000 nM

* * *

target: hEP4 (Homo sapiens); construct: expressed in transfected cells; host or cells: HEK293; assay: hEP4 cAMP assay; format: cell-based; settings: HEK293 cells overexpressing hEP4; PGE2 20 nM as agonist; median of multiple experiments; read-out: IC50 (nM) EP4 cAMP
Sequence (P35408 whole entry): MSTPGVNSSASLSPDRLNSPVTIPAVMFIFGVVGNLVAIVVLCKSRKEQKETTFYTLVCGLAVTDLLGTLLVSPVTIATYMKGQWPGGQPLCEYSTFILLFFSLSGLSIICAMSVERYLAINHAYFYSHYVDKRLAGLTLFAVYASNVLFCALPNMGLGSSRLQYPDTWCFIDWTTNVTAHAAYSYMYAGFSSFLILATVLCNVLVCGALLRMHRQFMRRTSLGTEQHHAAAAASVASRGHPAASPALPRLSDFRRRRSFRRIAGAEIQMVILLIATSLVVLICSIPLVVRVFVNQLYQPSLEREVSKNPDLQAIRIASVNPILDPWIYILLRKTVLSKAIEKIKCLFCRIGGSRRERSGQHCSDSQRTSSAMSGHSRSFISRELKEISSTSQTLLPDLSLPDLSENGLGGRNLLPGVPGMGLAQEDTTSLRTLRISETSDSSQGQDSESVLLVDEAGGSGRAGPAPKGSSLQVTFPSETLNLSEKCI
reported.metric: IC50

compound	val
O=C(N[C@]12C[C@](C(=O)O)(C1)C2)c1csc2ccn(Cc3ccc(-c4ccccc4)cc3)c12 [Example 87]	> 10000 nM

The record that follows has no IC50 shown yet.
Fill blank: measured IC50 of the compound COc1cc(-c2ccc(Cc3c(C)sc(C)c3C(=O)NC3CC4(C3)CC(C(=O)O)C4)cc2)cc(N2CCC2=O)c1 (centres unmarked) [Example 63] is ____. ≤ 500 nM
